I'd appreciate it if you could supply TGI values for the items below.
System: OVCAR-4 ovarian
Assay: NCI tumour cell line growth inhibition, 48 h

Prompt line: Consider the compound shown here: N#Cc1c(-c2ccc(Cl)cc2Cl)nc2[nH][nH]c(=S)n2c1=O What is its recorded TGI?
Response line: > 100 µM

Prompt line: Consider the compound shown here: O=C(O)Cc1cc(Cl)ccc1O What is its recorded TGI?
Response line: > 100 µM

Prompt line: Consider the compound shown here: C/C=C(/C)C(=O)O[C@@H]1CCN2CC[C@H](COC(=O)/C(=C/C)CO)C12 (stereo partly drawn) What is its recorded TGI?
Response line: > 100 µM

Prompt line: Consider the compound shown here: CCOC(=O)C12OC(CCC1=O)C(C(=O)OC)=C2C(=O)OC (stereo not drawn) What is its recorded TGI?
Response line: > 10 µM

Prompt line: Consider the compound shown here: Cn1nc(C(=O)N2CC(CCl)c3c2cc(N)c2ccccc32)cc1NC(=O)Nc1cc(C(=O)N2CC(CCl)c3c2cc(N)c2ccccc32)nn1C (stereo not drawn) What is its recorded TGI?
Response line: > 100 µM

Prompt line: Consider the compound shown here: CC(C)=CC[C@]12CCN[C@H]1N(S(=O)(=O)c1ccccc1)c1ccccc12 What is its recorded TGI?
Response line: 42 µM

Prompt line: Consider the compound shown here: Clc1ccc(C2C3COc4ccccc4C3=NN2c2ccccc2)cc1 (stereo not drawn) What is its recorded TGI?
Response line: > 100 µM

Prompt line: Consider the compound shown here: CC(O)C1(CNc2cc(Cl)nc(N)n2)CCC1 (stereo not drawn) What is its recorded TGI?
Response line: > 100 µM

Prompt line: Consider the compound shown here: CN1CCOC(c2ccccc2)O1 (stereo not drawn) What is its recorded TGI?
Response line: > 100 µM

Prompt line: Consider the compound shown here: CC1(CCOCc2ccccc2)NC(=O)NC1=O (stereo not drawn) What is its recorded TGI?
Response line: > 100 µM

Prompt line: Consider the compound shown here: CCCCCCc1cc2cc(C(=O)Nc3ccccc3)c(=N)oc2cc1O What is its recorded TGI?
Response line: > 60.9 µM

Prompt line: Consider the compound shown here: O=C(Nc1ccncc1)C(=O)c1cn(S(=O)(=O)c2ccc(F)cc2)c2ccccc12 What is its recorded TGI?
Response line: > 100 µM

Prompt line: Consider the compound shown here: CCOC(=O)Nc1ccc(-c2nc(-c3cccc(OCCN4CCOCC4)c3)c(-c3ccnc(Br)c3)[nH]2)cc1 What is its recorded TGI?
Response line: > 100 µM

Prompt line: Consider the compound shown here: Cc1c2c(C#N)nccc2c(C)c2c1c1ccccc1n2Cc1ccccc1 What is its recorded TGI?
Response line: > 100 µM

Prompt line: Consider the compound shown here: Nc1nc(SC/C=C/c2ccccc2)c2[nH]cnc2n1 What is its recorded TGI?
Response line: > 100 µM

Prompt line: Consider the compound shown here: COc1cc(F)ccc1-c1ncnc(Nc2cccc(CS(C)(=N)=O)c2)n1 (stereo not drawn) What is its recorded TGI?
Response line: > 100 µM

Prompt line: Consider the compound shown here: CC(C)(C)OC(=O)[C@H]1CCC(=S)N1Cc1ccccc1 What is its recorded TGI?
Response line: > 100 µM

Prompt line: Consider the compound shown here: O=C(c1ccccc1)c1cc2ccccc2o1 What is its recorded TGI?
Response line: > 100 µM

Prompt line: Consider the compound shown here: Cn1cc(-c2csc(-c3c[nH]c4ccc(F)cc34)n2)c2cnccc21 What is its recorded TGI?
Response line: 3.06 µM

Prompt line: Consider the compound shown here: Cc1nc2c(nc1C)-c1[nH]c3c(c1C(=O)C2=O)CCCC3=O What is its recorded TGI?
Response line: 3.04 µM

Prompt line: Consider the compound shown here: Oc1[nH]c2ccccc2c1N=NC(=S)Nc1cccc(Cl)c1 What is its recorded TGI?
Response line: 59.4 µM

Prompt line: Consider the compound shown here: CO/N=C(\COc1ccc2c(c1)oc(=O)c1cc(OC)ccc12)c1ccc(OC)cc1 What is its recorded TGI?
Response line: > 100 µM

Prompt line: Consider the compound shown here: O=C(O)C(NCc1ccccc1)C(NCc1ccccc1)C(=O)O (stereo not drawn) What is its recorded TGI?
Response line: > 100 µM

###

System: UACC-62 melanoma
Test: NCI tumour cell line growth inhibition, 48 h
Where a SMILES comes first, the peptide text is derived from it. The star is where a group is joined. Cbz = O=C(OCc1ccccc1)*; CH2Cl = ClC*
I'd appreciate it if you could supply TGI values for the items below.
Quick note: give the figure in µM, leave out the unit.

Prompt line: Consider the compound shown here: CC(C)CC(NC(=O)OCc1ccccc1)C(=O)NC(Cc1ccccc1)C(=O)CCl (stereo not drawn) (Cbz-Leu-Phe-CH2Cl; configuration not given here) What is its recorded TGI?
Response line: 7.82

Prompt line: Consider the compound shown here: O=[N+]([O-])/C(C(Cl)=C(Cl)Cl)=C(/Cl)Sc1ccccc1 What is its recorded TGI?
Response line: 3.36

Prompt line: Consider the compound shown here: COc1ccc(C(=O)/C=C/c2cc(-c3cc(OC)c(OC)c(OC)c3)n[nH]2)cc1OC What is its recorded TGI?
Response line: 3.22

Prompt line: Consider the compound shown here: O=C(N[C@@H](c1ccc(Cl)c(Cl)c1)C1CNC1)c1ccc2cnccc2c1 What is its recorded TGI?
Response line: 0.866

Prompt line: Consider the compound shown here: O=C1CCCC1CN1CCCC1 (configuration not stated) What is its recorded TGI?
Response line: 32.6

Prompt line: Consider the compound shown here: O=C(CC1(O)C(=O)N(Cc2ccccc2)c2ccc(F)cc21)c1ccc(C(=O)NCC2CCC3(CC2)OOC2(CCCCC2)OO3)cc1 (configuration not stated) What is its recorded TGI?
Response line: 5.61

Prompt line: Consider the compound shown here: CNCC#Cc1c(F)ccc2c1/C(=C/c1[nH]ccc1OC)C(=O)N2 What is its recorded TGI?
Response line: 0.815

Prompt line: Consider the compound shown here: Cn1cc(-c2csc(-c3c[nH]c4ccc(F)cc34)n2)c2cnccc21 What is its recorded TGI?
Response line: 3.39

Prompt line: Consider the compound shown here: N#CC(C(=O)C(=O)C(C#N)c1ccc(Br)cc1)c1ccc(Br)cc1 (configuration not stated) What is its recorded TGI?
Response line: 7.03

Prompt line: Consider the compound shown here: COc1cc2c(C)cc(O)cc2c2cc(O)c(C)cc12 What is its recorded TGI?
Response line: 22.3

Prompt line: Consider the compound shown here: CCOC(=O)c1nnc2c(C(=O)OCC)c3ccccc3n2c1N What is its recorded TGI?
Response line: 9.25

Prompt line: Consider the compound shown here: N#Cc1c(N)nc2n[nH]c(N)c2c1-c1ccc(Cl)cc1 What is its recorded TGI?
Response line: 4.23

Prompt line: Consider the compound shown here: C=CCCCCOc1ccccc1-c1cnc(OCCCCC=C)n1C What is its recorded TGI?
Response line: 17.4

###

Tested on: M19-MEL melanoma
Test: NCI tumour cell line growth inhibition, 48 h
observation type: TGI

Prompt line: Consider the compound shown here: CC(=O)Oc1c2c(c(O)c3ccccc13)C(n1cnc3c(ncn3C3OC(CO)C4OC(C)(C)OC43)c1=N)CCC2 (stereo unspecified) What is its recorded TGI?
Response line: 23.8 µM

Prompt line: Consider the compound shown here: N#CC(C(=O)C(=O)C(C#N)c1ccc(Br)cc1)c1ccc(Br)cc1 (stereo unspecified) What is its recorded TGI?
Response line: 25.8 µM

Prompt line: Consider the compound shown here: CN=C1CC2c3cc(OC)c(OC)cc3CCN2C2=C1C(=O)CC(C)(C)C2 (stereo unspecified) What is its recorded TGI?
Response line: > 100 µM

Prompt line: Consider the compound shown here: CCOC(=O)C(=[N+]=[N-])[Si](C)(C)C What is its recorded TGI?
Response line: > 100 µM

Prompt line: Consider the compound shown here: CC(=O)OC12C=CC(=O)N1c1ccccc1C(=O)O2 (stereo unspecified) What is its recorded TGI?
Response line: > 100 µM

Prompt line: Consider the compound shown here: COc1ccc(NC(=O)/C(Cc2cc(=O)oc3cc(O)ccc23)=N\NC(C)(C)C)c(OC)c1 What is its recorded TGI?
Response line: > 100 µM

Prompt line: Consider the compound shown here: CCCc1nc(NC#N)nc(C(=O)Nc2ccccc2)c1CC What is its recorded TGI?
Response line: > 100 µM

Prompt line: Consider the compound shown here: CCOc1ccc(NC(=O)CC#N)cc1 What is its recorded TGI?
Response line: > 100 µM

Prompt line: Consider the compound shown here: COC1(OC)C(N(C)C)=C(Cl)C(=O)/C1=C/C=O What is its recorded TGI?
Response line: > 100 µM

Prompt line: Consider the compound shown here: CC1c2c(Cl)nc3ccccc3c2Oc2c1c(Cl)nc1ccccc21 What is its recorded TGI?
Response line: > 100 µM

Prompt line: Consider the compound shown here: N#Cc1c2ccccc2cn1-c1ccc(F)cc1 What is its recorded TGI?
Response line: > 100 µM

Prompt line: Consider the compound shown here: C/C(Cc1ccccc1)=N\NC(N)=S What is its recorded TGI?
Response line: > 100 µM

Prompt line: Consider the compound shown here: C1=CC(N(c2ccccc2)C2C=CCCC2)CCC1 (stereo unspecified) What is its recorded TGI?
Response line: > 100 µM

Prompt line: Consider the compound shown here: Cc1ccccc1N1C(=O)C2C=CC(n3[nH]c(=O)n(Cc4ccccc4)c3=O)CC2C1=O (stereo unspecified) What is its recorded TGI?
Response line: > 100 µM

Prompt line: Consider the compound shown here: CCOc1ccc(NC(=O)C(=O)CC(=O)c2c(C)n([O-])c3ccccc3[n+]2=O)cc1 What is its recorded TGI?
Response line: > 100 µM

Prompt line: Consider the compound shown here: O=c1ccn([C@H]2CSC[C@@H](CO)C2)c(=O)[nH]1 What is its recorded TGI?
Response line: > 100 µM
